The values you see were collected from the FLAb antibody collection (doi:10.7554/elife.23156).

B1: scFv; the commonest letter at each place (parent)
chain 1: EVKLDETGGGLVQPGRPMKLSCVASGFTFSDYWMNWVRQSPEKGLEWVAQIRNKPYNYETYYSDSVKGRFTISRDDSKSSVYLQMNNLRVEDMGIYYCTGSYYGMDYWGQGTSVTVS
chain 2: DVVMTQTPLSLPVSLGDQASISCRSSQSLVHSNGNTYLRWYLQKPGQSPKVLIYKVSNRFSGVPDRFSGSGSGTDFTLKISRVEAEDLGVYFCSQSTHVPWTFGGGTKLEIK

Variants of: B1
Assay: yeast surface expression (ratio to wild type); higher = more expressed
Conditions: format: scFv 4-4-20, heavy + light
Here the recorded yeast surface expression is given for each entry.
Lab note: jot the number down without any unit.

Variant identifier: chain 1 D106Q W108G
yeast surface expression: 0.384
//
Variant identifier: chain 1 G104M
yeast surface expression: 0.571
//
Variant identifier: chain 1 G104S W108S
yeast surface expression: 0.304
//
Variant identifier: chain 1 G100C D106N
yeast surface expression: 0.768
//
Variant identifier: chain 1 Y103D G104Y
yeast surface expression: 0.898

[Q] Can you share its yeast surface expression? I mean this variant: chain 1 Y103C G109Y
[A] 0.494

[Q] Same question for chain 1 Y32T V37E please.
[A] 0.222

[Q] Can you check chain 1 G100E G109Y next?
[A] 0.199

[Q] Queued: chain 1 G104D Y107D
[A] 0.716

[Q] Cool, now chain 1 Y103E Y107V
[A] 1.07

[Q] Queued: chain 1 F29A D31P
[A] 0.922
